FYI, the data here is from patent US20240309103A1.

- Study system: T1, hNPR1-mFc:hBNP complex (human, UniProt P16860 103-134)
- T1 construct: also called human NPR1 complexed to BNP
- Assay comment: SPR, mAb captured, 25C
Test readout: kon
A complete answer gives the number and then names the unit.

* mAb22809 (antibody, human IgG4, V domains shown) VH: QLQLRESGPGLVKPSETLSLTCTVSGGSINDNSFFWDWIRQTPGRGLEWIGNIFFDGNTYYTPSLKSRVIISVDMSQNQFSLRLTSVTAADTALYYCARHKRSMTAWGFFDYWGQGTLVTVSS VL: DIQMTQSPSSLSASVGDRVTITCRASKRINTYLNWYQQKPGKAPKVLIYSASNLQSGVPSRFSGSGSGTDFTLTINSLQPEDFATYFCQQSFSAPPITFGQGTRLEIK | 32800 M⁻¹ s⁻¹

Moving on to another binder below.
Query :: Supply measured kon of mAb25491 (antibody, human IgG4, V domains shown) VH: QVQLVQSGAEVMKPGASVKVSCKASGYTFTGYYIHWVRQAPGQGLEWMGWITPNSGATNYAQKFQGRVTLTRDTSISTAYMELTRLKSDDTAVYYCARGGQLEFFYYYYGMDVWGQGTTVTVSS VL: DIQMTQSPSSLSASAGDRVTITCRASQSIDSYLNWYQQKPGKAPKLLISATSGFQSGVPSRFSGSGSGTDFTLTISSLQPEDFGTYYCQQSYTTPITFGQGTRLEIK in your reply.
Result :: 54600 M⁻¹ s⁻¹
